Each record here notes measured pKd.
Biological target: T1, SMN (aa 80–170) (human, UniProt Q16637 80-170)
T1 construct: Survival motor neuron protein (SMN), human, residues 80-170, covers the Tudor domain; cloned into the pET28-MHL vector; also called Survival motor neuron protein; source: E. coli BL21 (DE3), purified (Ni-NTA, size exclusion chromatography)
T1 sequence (Q16637 80-170): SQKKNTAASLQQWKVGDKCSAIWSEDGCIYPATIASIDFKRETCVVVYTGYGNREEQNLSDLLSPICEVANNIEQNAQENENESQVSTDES
Assay: fluorescence polarisation; fluorescein-labeled peptides; 20 mM Tris pH 7.5, 50 mM NaCl, 1 mM DTT, 0.01% Triton X-100; 25°C; one-site binding model; Kd the average of three independent measurements
Conditions: both partners purified
Square brackets hold non-standard residues; d marks the D form. Ends that are not written are not given here. Arg(Me2a) = CN(C)C(=N)NCCC[C@H](N)C(=O)O; Arg(Me2s) = CN=C(NC)NCCC[C@H](N)C(=O)O
Scale: negative log10 of molar concentration, which is what pKd denotes.

Binder	pKd
TG[Arg(Me2a)]ARARARGRARGQE (also: fluorescein label, position not given here, N-terminal GAR motif stretch of PIWIL1, R4 asymmetrically dimethylated; also called asymmetrical dimethylated PIWIL1 peptide; source: synthetic peptide (Tufts University Core Services)) [PIWIL1-R4me2a]	4.01

GET /value?item= GGRG[Arg(Me2s)]GRG (also: fluorescein label, position not given here, GAR motif peptide named after SmD3; also called SmD3 peptide; source: synthetic peptide (Tufts University Core Services)) [SmD3RSDMA] &field=pKd returns 4.03
